assay: Phase 1 Stage 1 clinical pharmacokinetics of SC ZA co-administered with rHuPH20; assay type: in vivo, human; settings: human, serum, sc, serum; ZA 0.25 mg SC infusion + 24000 Units rHuPH20; 0 h post infusion; n=3; read-out: Mean Conc.

compound	concentration at 0 h
O=P(O)(O)C(O)(Cn1ccnc1)P(=O)(O)O [ZA]	4.74 ng/mL

###

assay: Pharmacokinetics of ZA in pig serum after IV or SC infusion with or without rHuPH20 (LC-MS-MS, non-compartmental analysis); type: in vivo; conditions: female, Yorkshire, pig, serum, sc, […], pig 69; SC ZA […], 25 mL over 4 min, no rHuPH20; read-out: SC Bioavailability (0-1 h)

smiles string	bioavailability [%]
O=P(O)(O)C(O)(Cn1ccnc1)P(=O)(O)O	56.9
